SYSTEM TESTED: T1, FOXM1 DBD (GST fusion) (Homo sapiens, UniProt Q08050 222-360)
T1 sequence: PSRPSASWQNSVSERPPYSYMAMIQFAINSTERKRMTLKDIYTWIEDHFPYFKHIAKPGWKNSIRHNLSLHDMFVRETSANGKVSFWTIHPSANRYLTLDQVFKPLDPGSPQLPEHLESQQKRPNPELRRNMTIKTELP
METHOD DESCRIPTION: fluorescence polarization
VALUE TYPE: pKd
pKd here is simply -log10 of the concentration when that concentration is written in mol/L.

**Query** Which pKd value is on record for FOXM1 consensus DNA probe, 16 bp (dsDNA) DNA 1: AAACAAACAAACAATC DNA 2: GATTGTTTGTTTGTTT ?
**Result** 6.65

Sourced from paper PMC4258842
